Values from PubChem BioAssay AID1918932

System: 171881-019-R-J1-PDC complex spheroid viability;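 also: spheroids exposed to agents for 7 days after 3 days growth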
method.summary: Anticancer human tumor 171881-019-R-J1-PDC patient-derived invasive breast carcinoma cell line growth inhibition; active = viability on the fitted dose curve at most 10% of control; inactive = the rest
assay.setup: second compound 0.316 µM; first compound 3 µM
Outcomes: class 1 = active, class 0 = inactive

{"compound": "NS(=O)(=O)OCC1CC(n2ccc3c(NC4CCc5ccccc54)ncnc32)CC1O (stereo not given) + NC1CC1c1ccc(-c2cccc(O)c2)cc1", "assayed.system": "171881-019-R-J1-PDC complex spheroid viability", "assigned.category": "class 0"}
{"compound": "NS(=O)(=O)OCC1CC(n2ccc3c(NC4CCc5ccccc54)ncnc32)CC1O (stereo not given) + NC1CCC(NC2CC2c2ccccc2)CC1", "assayed.system": "171881-019-R-J1-PDC complex spheroid viability", "assigned.category": "class 0"}
{"compound": "Nc1ccccc1NC(=O)c1ccc(CNC(=O)OCc2cccnc2)cc1 + NC1CCC(NC2CC2c2ccccc2)CC1", "assayed.system": "171881-019-R-J1-PDC complex spheroid viability", "assigned.category": "class 1"}
{"compound": "O=C(C=Cc1cccc(S(=O)(=O)Nc2ccccc2)c1)NO + NC1CC1c1ccc(-c2cccc(O)c2)cc1", "assayed.system": "171881-019-R-J1-PDC complex spheroid viability", "assigned.category": "class 1"}
{"compound": "Nc1ccccc1NC(=O)c1ccc(CNC(=O)OCc2cccnc2)cc1 + NC1CC1c1ccc(-c2cccc(O)c2)cc1", "assayed.system": "171881-019-R-J1-PDC complex spheroid viability", "assigned.category": "class 1"}
{"compound": "CCN(c1cc(-c2ccc(CN3CCOCC3)cc2)cc(C(=O)NCc2c(C)cc(C)[nH]c2=O)c1C)C1CCOCC1 + NC1CCC(NC2CC2c2ccccc2)CC1", "assayed.system": "171881-019-R-J1-PDC complex spheroid viability", "assigned.category": "class 0"}
{"compound": "O=C(C=Cc1cccc(S(=O)(=O)Nc2ccccc2)c1)NO + NC1CCC(NC2CC2c2ccccc2)CC1", "assayed.system": "171881-019-R-J1-PDC complex spheroid viability", "assigned.category": "class 1"}
{"compound": "COc1cc(C2c3cc4c(cc3C(OC3OC5COC(C)OC5C(O)C3O)C3COC(=O)C23)OCO4)cc(OC)c1O (stereo not given) + NC1CC1c1ccc(-c2cccc(O)c2)cc1", "assayed.system": "171881-019-R-J1-PDC complex spheroid viability", "assigned.category": "class 0"}
{"compound": "CCN(c1cc(-c2ccc(CN3CCOCC3)cc2)cc(C(=O)NCc2c(C)cc(C)[nH]c2=O)c1C)C1CCOCC1 + NC1CC1c1ccc(-c2cccc(O)c2)cc1", "assayed.system": "171881-019-R-J1-PDC complex spheroid viability", "assigned.category": "class 0"}
{"compound": "COc1cc(C2c3cc4c(cc3C(OC3OC5COC(C)OC5C(O)C3O)C3COC(=O)C23)OCO4)cc(OC)c1O (stereo not given) + NC1CCC(NC2CC2c2ccccc2)CC1", "assayed.system": "171881-019-R-J1-PDC complex spheroid viability", "assigned.category": "class 0"}
